The measurements presented in this section are drawn from patent US6344473B1.

Molecular target: hecNOS (Homo sapiens)
Structures can show the parent of a compound that is named as a salt.

| compound | result.units | IC50 |
| --- | --- | --- |
| CCOC(=O)[C@@H](N)CCCCn1c(C)noc1=O [Example 3, monohydrochloride] | mM | 1.43 |

---

Target: hiNOS (Homo sapiens, UniProt P35228)
Counter-ions that a name gives are not always drawn.
measured.property: IC50 (µM)

| compound | tested.system | measured.property | observed.value |
| --- | --- | --- | --- |
| CCOC(=O)[C@@H](N)CCCCn1c(C)noc1=O [Example 3, monohydrochloride] | hiNOS (Homo sapiens, UniProt P35228) | IC50 | 124 |
